- Test system: 817829-284-R-J1-PDC multi-cell spheroid viability;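 note: spheroids exposed to agents for seven days before readout; percent of vehicle DMSO control viability which is 100%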
- Experimental protocol: Anticancer human tumor 817829-284-R-J1-PDC patient-derived colon adenocarcinoma cell line growth inhibition [PI3K]
- Stated conditions: second compound 0.01 µM; first compound 3.16 µM; hits give low values
- Description: Combinatorial screen of targeted agents with the PI3K inhibitors inavolisib, alpelisib, duvelisib, and copanlisib in multi-cell type tumor spheroids A high-throughput screen of multi-cell type tumor spheroids was designed to identify active combinations of targeted small molecules and PI3K pathway inhibitors. […] Compounds. […] If the clinical Cmax for an agent had not been determined, the highest concentration tested was 10 microM. […]
Quick reference for viability, T/C among some molecules
Parameter: viability, T/C (%)

[
  {
    "Molecule": "Cn1ncc(Cl)c1-c1cc(C(=O)NC(CN)Cc2cccc(F)c2)sc1Cl (stereo not drawn) + COc1c(OCCCN2CCOCC2)ccc2c3n(c(=NC(=O)c4cnc(N)nc4)nc12)CCN3",
    "Measure unit": "%",
    "Observed measurement": 18.3
  },
  {
    "Molecule": "CC1(C)CCC(CN2CCN(c3ccc(C(=O)NS(=O)(=O)c4ccc(NCC5CCOCC5)c([N+](=O)[O-])c4)c(Oc4cnc5[nH]ccc5c4)c3)CC2)=C(c2ccc(Cl)cc2)C1 + CC(Nc1ccc2c(c1)OCCn1cc(N3C(=O)OCC3C(F)F)nc1-2)C(N)=O",
    "Measure unit": "%",
    "Observed measurement": 57.3
  },
  {
    "Molecule": "Cn1ncc(Cl)c1-c1cc(C(=O)NC(CN)Cc2cccc(F)c2)sc1Cl (stereo not drawn) + CC(Nc1ccc2c(c1)OCCn1cc(N3C(=O)OCC3C(F)F)nc1-2)C(N)=O",
    "Measure unit": "%",
    "Observed measurement": 14.4
  }
]
